assay_details: Aqueous solubility of the compound at pH 7.4
measurement_setup: buffer
Can you tell me solubility for the items I'm about to list?
The reply should contain only the number, in µg/mL.

## Task Need solubility, item O=C(O)c1cc(-c2ccc([C@@H]3CCN[C@@H]4C[C@@H]43)cc2)c2ccc(-c3ccc(C(F)(F)F)cc3)cc2c1 (racemic)
## Result 0.05

## Task Also check O=C(O)c1cc(-c2ccc(C34CCNCC3C4)cc2)c2ccc(-c3ccc(C(F)(F)F)cc3)cc2c1 (racemic)
## Result 0.17

## Task Also check O=C(O)c1cc(-c2ccc(C34CCN(CC3)CC4)cc2)c2ccc(-c3ccc(C(F)(F)F)cc3)cc2c1
## Result 0.55

## Task Also check O=C(O)c1cc(-c2ccc([C@H]3C[C@H]4C[C@@H]3CN4)cc2)c2ccc(-c3ccc(C(F)(F)F)cc3)cc2c1 (racemic)
## Result 0.47
